The measured values listed here are drawn from ChEMBL document CHEMBL1159141.

# Tested Target: UniProt P02550
# Test: In vitro concentration which causes polymerization of 50% of the tubulin, activity relative to taxol (ED50=1)
# Type: functional
Readout Kind: ED50 ratio
Give bare numbers.

CC(=O)O[C@H]1C(=O)[C@@]2(C)[C@H]([C@H](OC(=O)c3ccccc3)[C@]3(O)C[C@H](OC(=O)[C@H](O)[C@H](NC(=O)c4ccccc4)c4ccc([N+](=O)[O-])cc4)C(C)=C1C3(C)C)[C@]1(OC(C)=O)CO[C@@H]1C[C@@H]2O	1.1

Shift focus to the following entry.
-- ask Please look up its ED50 ratio: CC(=O)O[C@H]1C(=O)[C@@]2(C)[C@H]([C@H](OC(=O)c3ccccc3)[C@]3(O)C[C@H](OC(=O)[C@H](O)[C@H](NC(=O)c4ccccc4)c4cccc(Cl)c4)C(C)=C1C3(C)C)[C@]1(OC(C)=O)CO[C@@H]1C[C@@H]2O
-- reply 4.4

====

# Tested Target: Tubulin alpha chain (Sus scrofa) (UniProt P02550)
# Sequence (P02550 whole entry, looked up): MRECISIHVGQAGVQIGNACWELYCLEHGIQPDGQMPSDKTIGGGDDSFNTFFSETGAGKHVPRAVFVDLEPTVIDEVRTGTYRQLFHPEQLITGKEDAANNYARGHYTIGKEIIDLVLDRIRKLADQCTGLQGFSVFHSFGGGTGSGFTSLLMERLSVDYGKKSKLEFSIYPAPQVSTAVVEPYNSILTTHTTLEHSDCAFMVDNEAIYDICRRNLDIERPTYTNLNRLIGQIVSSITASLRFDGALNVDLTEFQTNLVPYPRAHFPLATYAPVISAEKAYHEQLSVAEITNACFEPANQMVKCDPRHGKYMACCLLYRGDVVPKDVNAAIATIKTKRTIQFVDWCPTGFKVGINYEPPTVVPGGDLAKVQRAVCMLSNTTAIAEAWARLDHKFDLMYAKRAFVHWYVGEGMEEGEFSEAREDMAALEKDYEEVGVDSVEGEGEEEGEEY
# Test: In vitro concentration which causes polymerization of 50% of the tubulin, activity relative to taxol (ED50=1)
# Format: functional
Readout Kind: ED50 ratio
Give bare numbers.

CC(=O)O[C@H]1C(=O)[C@@]2(C)[C@H]([C@H](OC(=O)c3ccccc3)[C@]3(O)C[C@H](OC(=O)[C@H](O)[C@@H](NC(=O)c4ccccc4)c4ccccc4)C(C)=C1C3(C)C)[C@]1(OC(C)=O)CO[C@@H]1C[C@@H]2O	1
CC(=O)O[C@H]1C(=O)[C@@]2(C)[C@H]([C@H](OC(=O)c3ccccc3)[C@]3(O)C[C@H](OC(=O)[C@H](O)[C@H](NC(=O)c4ccccc4)c4ccc(C)cc4)C(C)=C1C3(C)C)[C@]1(OC(C)=O)CO[C@@H]1C[C@@H]2O	2.4
COc1ccc([C@@H](NC(=O)c2ccccc2)[C@@H](O)C(=O)O[C@H]2C[C@@]3(O)[C@@H](OC(=O)c4ccccc4)[C@@H]4[C@]5(OC(C)=O)CO[C@@H]5C[C@H](O)[C@@]4(C)C(=O)[C@H](OC(C)=O)C(=C2C)C3(C)C)cc1	0.5

Shift focus to the following entry.
-- ask // map CC(=O)O[C@H]1C(=O)[C@@]2(C)[C@H]([C@H](OC(=O)c3ccccc3)[C@]3(O)C[C@H](OC(=O)[C@H](O)[C@H](NC(=O)c4ccccc4)c4ccc(Cl)c(Cl)c4)C(C)=C1C3(C)C)[C@]1(OC(C)=O)CO[C@@H]1C[C@@H]2O to recorded ED50 ratio (system: Tubulin alpha chain (Sus scrofa) (UniProt P02550))
-- reply 7.1

====

Hi there, I'd appreciate the recorded ED50 ratio for every entry that follows.
# Tested Target: Tubulin alpha chain (Sus scrofa)
# Test: In vitro concentration which causes polymerization of 50% of the tubulin, activity relative to taxol (ED50=1)
# Assay type: functional
Numbers only.

Study these solved cases before continuing.
CC(=O)O[C@H]1C(=O)[C@@]2(C)[C@H]([C@H](OC(=O)c3ccccc3)[C@]3(O)C[C@H](OC(=O)[C@H](O)[C@H](NC(=O)c4ccccc4)c4ccc(F)cc4)C(C)=C1C3(C)C)[C@]1(OC(C)=O)CO[C@@H]1C[C@@H]2O	1.1
CC(=O)O[C@H]1C(=O)[C@@]2(C)[C@H]([C@H](OC(=O)c3ccccc3)[C@]3(O)C[C@H](OC(=O)[C@H](O)[C@H](NC(=O)c4ccccc4)c4cccc(N(C)C)c4)C(C)=C1C3(C)C)[C@]1(OC(C)=O)CO[C@@H]1C[C@@H]2O	4.6
CC(=O)O[C@H]1C(=O)[C@@]2(C)[C@H]([C@H](OC(=O)c3ccccc3)[C@]3(O)C[C@H](OC(=O)[C@H](O)[C@H](NC(=O)c4ccccc4)c4ccc(Cl)cc4)C(C)=C1C3(C)C)[C@]1(OC(C)=O)CO[C@@H]1C[C@@H]2O	1.9

Shift focus to the following entry.
-- ask Please look up its ED50 ratio: CC(=O)O[C@H]1C(=O)[C@@]2(C)[C@H]([C@H](OC(=O)c3ccccc3)[C@]3(O)C[C@H](OC(=O)[C@H](O)[C@H](NC(=O)c4ccccc4)c4ccccc4C)C(C)=C1C3(C)C)[C@]1(OC(C)=O)CO[C@@H]1C[C@@H]2O
-- reply 5.1
